B1: TPR t1 (parent)
chain: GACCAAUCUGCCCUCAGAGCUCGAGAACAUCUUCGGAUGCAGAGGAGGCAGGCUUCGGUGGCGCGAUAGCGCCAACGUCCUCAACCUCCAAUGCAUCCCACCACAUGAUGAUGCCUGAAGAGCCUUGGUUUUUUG

Variants of: B1
test: polymerase ribozyme fitness, log enrichment relative to wild type (log ratio); higher = more active; in vitro selection for triplet polymerase activity
property: polymerase ribozyme fitness (log ratio)

| mutation_code | measurement |
| --- | --- |
| C40G A111G | -0.323 |
| C11A C13G U32C A50U G93U U96G U112A U131G | -4.75 |
| C8A G71A C104A | -2.19 |
| C34A C70U C79U | -4.29 |
| C3U G110C | -4.17 |
| C12A U130C U131C | -0.148 |
| G48C C79A | -3.15 |
| A18C A41G C101G | -5.9 |
| A6U U9G A27U C34A G44U C64U | -6.87 |
| C85U U87A C88A | -2.23 |

Where do the numbers come from? From the RNAGym collection of RNA variant scans (doi:10.1073/pnas.2313332121).
